B1: EHEE_rd2_1257 (parent)
chain: EEERTFTNEEEARKAKKEAEKRGLRVTVTKDGTTWRVRIG

- Variants of: B1
- ASSAY PROCEDURE: folding stability dG (cDNA display proteolysis); higher = more stable
- APPLIED CONDITIONS: PBS, room temperature
REPORTED ENDPOINT: folding stability dG (kcal/mol)
Entry rule: numbers only, all in kcal/mol.

MUTANT DESIGNATION	folding stability dG, kcal/mol
T27H	1.57
T34N	2.02
E2M	2.16

Query: Find the recorded folding stability dG belonging to D31H and report it.
Result: 1.78

Query: So what does the record say about folding stability dG for K21M ?
Result: 2.45

Query: Given the entry E11R , report its measured folding stability dG.
Result: 0.608

Query: Would you mind telling me what folding stability dG value was observed for G23E ?
Result: -0.609

Query: What value of measured folding stability dG is listed for T27E ?
Result: 1.64

Query: Return reported folding stability dG; argument: R22F
Result: 1.62

Query: # query: folding stability dG of entry E10R
Result: 2.23

Query: For the variant shown here, T29L , give the reported folding stability dG.
Result: 1.8

Query: Entry under review: I39E . Reported folding stability dG?
Result: 0.258

Query: Please look up its folding stability dG: E18F
Result: 1.56

Query: GET /values?readout=folding stability dG&item= T7N
Result: 1.98
